Molecular target: PPARα (Homo sapiens, UniProt Q07869)
Sequence (Q07869 1-468): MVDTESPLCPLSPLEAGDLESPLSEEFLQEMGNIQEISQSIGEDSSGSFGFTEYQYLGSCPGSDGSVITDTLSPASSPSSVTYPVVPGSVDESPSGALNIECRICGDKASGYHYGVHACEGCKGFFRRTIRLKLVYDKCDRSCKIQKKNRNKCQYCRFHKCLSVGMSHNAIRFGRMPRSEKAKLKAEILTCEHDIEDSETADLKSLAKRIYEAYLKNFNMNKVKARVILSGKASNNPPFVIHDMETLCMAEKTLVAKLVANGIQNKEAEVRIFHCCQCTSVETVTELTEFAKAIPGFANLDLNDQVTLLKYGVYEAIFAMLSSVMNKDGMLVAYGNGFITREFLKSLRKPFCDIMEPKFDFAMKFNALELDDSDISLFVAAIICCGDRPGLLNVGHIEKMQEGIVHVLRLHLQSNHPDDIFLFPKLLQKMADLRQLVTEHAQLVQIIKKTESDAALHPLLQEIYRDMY
Assay: nuclear receptor cellular GAL4 reporter assay
Conditions: agonist and antagonist mode; read-out: potency in agonist and antagonist mode
pIC50: −log10 of the molar value.
observationType: pIC50

Item under review: CC1CCCN1C(=O)c1nc(C(=O)NCC(C)(C)O)sc1-c1ccc(C(O)(C(F)(F)F)C(F)(F)F)c(Cl)c1Cl (stereo not shown) . Reported pIC50? < 5.82

###

target: 5HT2B (Homo sapiens); assay: GPCR panel, cAMP or calcium FLIPR assays; format: cell-based; conditions: antagonist
Sequence (P41595 whole entry, species assumed): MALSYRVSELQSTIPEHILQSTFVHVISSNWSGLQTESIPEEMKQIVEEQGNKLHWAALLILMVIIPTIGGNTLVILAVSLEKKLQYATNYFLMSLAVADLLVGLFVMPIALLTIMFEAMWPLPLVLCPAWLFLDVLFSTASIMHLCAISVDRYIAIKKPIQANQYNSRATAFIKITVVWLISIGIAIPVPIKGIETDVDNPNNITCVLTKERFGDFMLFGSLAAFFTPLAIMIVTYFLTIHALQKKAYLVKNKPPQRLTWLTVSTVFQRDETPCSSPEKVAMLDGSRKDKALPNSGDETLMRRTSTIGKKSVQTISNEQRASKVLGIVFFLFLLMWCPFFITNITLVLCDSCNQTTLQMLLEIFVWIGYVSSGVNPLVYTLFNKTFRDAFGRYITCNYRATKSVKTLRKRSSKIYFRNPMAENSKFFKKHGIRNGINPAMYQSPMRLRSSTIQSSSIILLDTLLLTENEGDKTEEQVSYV
observationType: IC50

Item under review: CC1CCCN1C(=O)c1nc(C(=O)NCC(C)(C)O)sc1-c1ccc(C(O)(C(F)(F)F)C(F)(F)F)c(Cl)c1Cl (stereo not shown) . Reported IC50? > 10 µM

###

biological target: hNav1.5 (Homo sapiens, UniProt Q14524); test: follow-up functional study; details: read-out: IC50 in follow-up functional studies
pIC50: −log10 of the molar value.
observationType: pIC50

Item under review: CC1CCCN1C(=O)c1nc(C(=O)NCC(C)(C)O)sc1-c1ccc(C(O)(C(F)(F)F)C(F)(F)F)c(Cl)c1Cl (stereo not shown) [JNJ-61803534] . Reported pIC50? < 4.52

###

target: KOP (Homo sapiens, UniProt P41145); experiment: GPCR panel, cAMP or calcium FLIPR assays; format: cell-based; conditions: agonist
Sequence (P41145 whole entry): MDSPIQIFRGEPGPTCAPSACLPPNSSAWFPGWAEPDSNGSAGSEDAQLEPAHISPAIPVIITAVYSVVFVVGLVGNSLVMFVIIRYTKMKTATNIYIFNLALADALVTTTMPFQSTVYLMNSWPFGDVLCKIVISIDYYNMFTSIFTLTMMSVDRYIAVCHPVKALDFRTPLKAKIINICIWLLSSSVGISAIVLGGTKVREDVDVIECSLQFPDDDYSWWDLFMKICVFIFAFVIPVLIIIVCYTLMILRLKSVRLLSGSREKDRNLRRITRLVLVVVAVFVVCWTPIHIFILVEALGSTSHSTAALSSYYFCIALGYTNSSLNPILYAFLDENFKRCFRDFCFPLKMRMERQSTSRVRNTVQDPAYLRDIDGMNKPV
observationType: EC50

Item under review: CC1CCCN1C(=O)c1nc(C(=O)NCC(C)(C)O)sc1-c1ccc(C(O)(C(F)(F)F)C(F)(F)F)c(Cl)c1Cl (stereo not shown) . Reported EC50? > 12.5 µM

###

molecular target: VDR (Homo sapiens, UniProt P11473); assay: nuclear receptor cellular GAL4 reporter assay; settings: agonist and antagonist mode; read-out: potency in agonist and antagonist mode
Sequence (P11473 whole entry, the tested form may be a part): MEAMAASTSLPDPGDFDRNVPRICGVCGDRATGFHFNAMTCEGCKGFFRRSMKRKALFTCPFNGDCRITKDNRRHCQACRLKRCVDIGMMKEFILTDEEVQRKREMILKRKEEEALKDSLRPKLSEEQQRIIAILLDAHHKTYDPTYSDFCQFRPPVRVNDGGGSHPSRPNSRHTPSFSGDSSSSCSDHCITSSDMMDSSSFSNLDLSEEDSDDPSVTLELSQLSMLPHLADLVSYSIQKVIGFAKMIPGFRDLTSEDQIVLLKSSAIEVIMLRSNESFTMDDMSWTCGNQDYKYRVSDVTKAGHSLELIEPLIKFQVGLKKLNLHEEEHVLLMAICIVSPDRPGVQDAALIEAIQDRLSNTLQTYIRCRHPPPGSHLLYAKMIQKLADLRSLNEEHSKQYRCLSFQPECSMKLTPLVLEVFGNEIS
pIC50: −log10 of the molar value.
observationType: pIC50

Item under review: CC1CCCN1C(=O)c1nc(C(=O)NCC(C)(C)O)sc1-c1ccc(C(O)(C(F)(F)F)C(F)(F)F)c(Cl)c1Cl (stereo not shown) [JNJ-61803534] . Reported pIC50? < 5.82

###

target: delta (Homo sapiens, UniProt P41143); assay: GPCR panel, cAMP or calcium FLIPR assays; format: cell-based; conditions: antagonist
Sequence (P41143 whole entry): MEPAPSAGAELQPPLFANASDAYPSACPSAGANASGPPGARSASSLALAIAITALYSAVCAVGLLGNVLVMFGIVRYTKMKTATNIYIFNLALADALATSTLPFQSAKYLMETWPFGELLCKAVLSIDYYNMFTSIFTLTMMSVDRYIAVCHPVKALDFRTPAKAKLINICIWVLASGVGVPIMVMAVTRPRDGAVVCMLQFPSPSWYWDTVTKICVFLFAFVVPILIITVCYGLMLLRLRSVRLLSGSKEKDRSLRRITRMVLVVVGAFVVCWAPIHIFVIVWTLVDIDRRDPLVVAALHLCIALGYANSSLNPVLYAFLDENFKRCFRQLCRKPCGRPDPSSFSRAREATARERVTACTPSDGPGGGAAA
observationType: IC50

Item under review: CC1CCCN1C(=O)c1nc(C(=O)NCC(C)(C)O)sc1-c1ccc(C(O)(C(F)(F)F)C(F)(F)F)c(Cl)c1Cl (stereo not shown) . Reported IC50? > 12.5 µM

###

Assay: 1-month GLP toxicity study in rats
Format: in vivo
Settings: both sexes, Sprague-Dawley, in vivo; rat, 1 month oral, highest dose tested; read-out: no-observed-adverse-effect level (NOAEL)
Experimental: The type of study plan was reviewed and agreed by the Laboratory Animal Welfare Officer and the Animal Ethical Committee (officially known as Dierexperimentencommissie (DEC) Charles River Den Bosch), as required by the Dutch Act on Animal Experimentation (February 1997). Both rat and dog studies were performed in AALAC accredited Charles River Laboratories in the Netherlands. […] Rats and dogs were also assessed for reversal of any effects following a 1-month recovery period. […]
observationType: NOAEL at 1 month (mg/kg/day)
The answer is to be given in mg/kg/day; state only the numeric part.

Item under review: CC1CCCN1C(=O)c1nc(C(=O)NCC(C)(C)O)sc1-c1ccc(C(O)(C(F)(F)F)C(F)(F)F)c(Cl)c1Cl (stereo not shown) . Reported NOAEL at 1 month? 400

###

molecular target: V1A (Homo sapiens, UniProt P37288); experiment: GPCR panel, cAMP or calcium FLIPR assays; format: cell-based; details: agonist
Sequence (P37288 whole entry): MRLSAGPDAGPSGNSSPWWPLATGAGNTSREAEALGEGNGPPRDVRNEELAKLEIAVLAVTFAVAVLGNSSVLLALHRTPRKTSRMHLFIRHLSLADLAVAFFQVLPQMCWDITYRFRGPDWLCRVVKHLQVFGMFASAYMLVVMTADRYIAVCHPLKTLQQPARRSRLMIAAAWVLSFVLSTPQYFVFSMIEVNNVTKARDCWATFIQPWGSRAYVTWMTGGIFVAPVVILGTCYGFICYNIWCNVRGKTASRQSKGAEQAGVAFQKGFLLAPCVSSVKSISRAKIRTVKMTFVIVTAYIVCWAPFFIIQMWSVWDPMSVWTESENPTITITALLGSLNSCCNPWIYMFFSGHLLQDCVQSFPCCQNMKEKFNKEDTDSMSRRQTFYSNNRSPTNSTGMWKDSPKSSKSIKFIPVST
observationType: EC50

Item under review: CC1CCCN1C(=O)c1nc(C(=O)NCC(C)(C)O)sc1-c1ccc(C(O)(C(F)(F)F)C(F)(F)F)c(Cl)c1Cl (stereo not shown) . Reported EC50? > 10 µM

###

experiment: 1-month GLP toxicity study in rats; format: in vivo; details: Sprague-Dawley, in vivo, po; rat, 400 mg/kg/day, male; read-out: AUC0-24 h at NOAEL
observationType: AUC(0-t) (µg·h/mL)
The answer is to be given in µg·h/mL; state only the numeric part.

Item under review: CC1CCCN1C(=O)c1nc(C(=O)NCC(C)(C)O)sc1-c1ccc(C(O)(C(F)(F)F)C(F)(F)F)c(Cl)c1Cl (stereo not shown) . Reported AUC(0-t)? 310

###

target: ERβ (Homo sapiens, UniProt Q92731); experiment: nuclear receptor cellular GAL4 reporter assay; conditions: agonist and antagonist mode; read-out: potency in agonist and antagonist mode
Sequence (Q92731 whole entry, the tested form may be a part): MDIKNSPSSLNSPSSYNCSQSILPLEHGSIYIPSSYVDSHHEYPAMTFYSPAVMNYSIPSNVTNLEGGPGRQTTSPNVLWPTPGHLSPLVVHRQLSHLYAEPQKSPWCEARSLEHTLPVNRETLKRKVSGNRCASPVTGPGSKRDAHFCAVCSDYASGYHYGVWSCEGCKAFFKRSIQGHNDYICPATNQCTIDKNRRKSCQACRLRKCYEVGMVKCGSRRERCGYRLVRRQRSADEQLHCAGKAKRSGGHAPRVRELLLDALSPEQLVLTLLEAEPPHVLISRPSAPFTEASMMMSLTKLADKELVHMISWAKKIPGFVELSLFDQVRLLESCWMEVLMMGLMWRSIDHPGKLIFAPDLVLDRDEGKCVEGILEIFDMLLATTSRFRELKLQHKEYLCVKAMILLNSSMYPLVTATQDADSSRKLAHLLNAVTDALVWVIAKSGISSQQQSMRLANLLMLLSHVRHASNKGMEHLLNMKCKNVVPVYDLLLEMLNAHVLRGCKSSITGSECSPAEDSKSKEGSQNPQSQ
observationType: IC50

Item under review: CC1CCCN1C(=O)c1nc(C(=O)NCC(C)(C)O)sc1-c1ccc(C(O)(C(F)(F)F)C(F)(F)F)c(Cl)c1Cl (stereo not shown) . Reported IC50? > 1.5 µM

###

experiment: phase 1 single ascending dose study, pharmacokinetics; type: in vivo, human; settings: both sexes, human, plasma, po, 100 mg, 100 mg single oral dose, fed, n=9; mean (SD); read-out: AUC216h
observationType: AUC(0-t) (ng·h/mL)
The answer is to be given in ng·h/mL; state only the numeric part.

Item under review: CC1CCCN1C(=O)c1nc(C(=O)NCC(C)(C)O)sc1-c1ccc(C(O)(C(F)(F)F)C(F)(F)F)c(Cl)c1Cl (stereo not shown) . Reported AUC(0-t)? 61700

###

molecular target: 5HT1B (Homo sapiens, UniProt P28222); test: GPCR panel, cAMP or calcium FLIPR assays; assay type: cell-based; conditions: antagonist
Sequence (P28222 whole entry, species assumed): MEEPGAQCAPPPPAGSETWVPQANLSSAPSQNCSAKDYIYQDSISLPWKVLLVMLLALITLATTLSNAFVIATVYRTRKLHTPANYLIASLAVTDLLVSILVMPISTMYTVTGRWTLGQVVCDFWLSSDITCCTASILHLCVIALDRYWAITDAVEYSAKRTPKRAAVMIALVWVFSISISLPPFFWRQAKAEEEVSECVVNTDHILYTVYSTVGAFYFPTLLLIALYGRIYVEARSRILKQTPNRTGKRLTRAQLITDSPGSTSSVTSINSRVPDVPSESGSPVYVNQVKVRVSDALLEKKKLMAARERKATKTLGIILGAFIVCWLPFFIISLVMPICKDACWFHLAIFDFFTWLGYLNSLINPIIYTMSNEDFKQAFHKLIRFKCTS
observationType: IC50

Item under review: CC1CCCN1C(=O)c1nc(C(=O)NCC(C)(C)O)sc1-c1ccc(C(O)(C(F)(F)F)C(F)(F)F)c(Cl)c1Cl (stereo not shown) . Reported IC50? > 12.5 µM

###

test: phase 1 single ascending dose study, pharmacokinetics; assay type: in vivo, human; details: both sexes, human, plasma, po, 100 mg, 100 mg single oral dose, fed, n=9; mean (SD); read-out: t1/2 (converted)
observationType: half-life (h)
The answer is to be given in h; state only the numeric part.

Item under review: CC1CCCN1C(=O)c1nc(C(=O)NCC(C)(C)O)sc1-c1ccc(C(O)(C(F)(F)F)C(F)(F)F)c(Cl)c1Cl (stereo not shown) . Reported half-life? 168

###

target: ERα (Homo sapiens); test: nuclear receptor cellular GAL4 reporter assay; details: agonist and antagonist mode; read-out: potency in agonist and antagonist mode
Sequence (P03372 whole entry, the tested form may be a part): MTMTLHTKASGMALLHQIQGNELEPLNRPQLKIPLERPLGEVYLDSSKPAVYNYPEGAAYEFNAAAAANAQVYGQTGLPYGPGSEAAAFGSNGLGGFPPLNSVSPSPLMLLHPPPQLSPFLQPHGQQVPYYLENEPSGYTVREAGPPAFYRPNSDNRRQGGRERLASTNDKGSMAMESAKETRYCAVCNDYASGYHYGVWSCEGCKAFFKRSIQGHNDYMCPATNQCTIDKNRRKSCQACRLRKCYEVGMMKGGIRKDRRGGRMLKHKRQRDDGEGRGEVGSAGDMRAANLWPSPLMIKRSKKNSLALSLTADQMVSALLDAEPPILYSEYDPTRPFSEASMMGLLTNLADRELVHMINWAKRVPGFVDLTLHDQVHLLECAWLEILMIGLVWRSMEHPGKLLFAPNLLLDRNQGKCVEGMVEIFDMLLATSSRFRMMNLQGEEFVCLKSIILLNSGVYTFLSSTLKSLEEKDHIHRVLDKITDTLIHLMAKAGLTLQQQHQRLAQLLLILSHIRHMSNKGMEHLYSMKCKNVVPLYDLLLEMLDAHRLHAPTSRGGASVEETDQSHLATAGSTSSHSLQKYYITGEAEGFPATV
observationType: IC50

Item under review: CC1CCCN1C(=O)c1nc(C(=O)NCC(C)(C)O)sc1-c1ccc(C(O)(C(F)(F)F)C(F)(F)F)c(Cl)c1Cl (stereo not shown) . Reported IC50? > 1500 nM

###

target: D1 (Homo sapiens); experiment: GPCR panel, cAMP or calcium FLIPR assays; assay type: cell-based; settings: agonist
Sequence (P21728 whole entry): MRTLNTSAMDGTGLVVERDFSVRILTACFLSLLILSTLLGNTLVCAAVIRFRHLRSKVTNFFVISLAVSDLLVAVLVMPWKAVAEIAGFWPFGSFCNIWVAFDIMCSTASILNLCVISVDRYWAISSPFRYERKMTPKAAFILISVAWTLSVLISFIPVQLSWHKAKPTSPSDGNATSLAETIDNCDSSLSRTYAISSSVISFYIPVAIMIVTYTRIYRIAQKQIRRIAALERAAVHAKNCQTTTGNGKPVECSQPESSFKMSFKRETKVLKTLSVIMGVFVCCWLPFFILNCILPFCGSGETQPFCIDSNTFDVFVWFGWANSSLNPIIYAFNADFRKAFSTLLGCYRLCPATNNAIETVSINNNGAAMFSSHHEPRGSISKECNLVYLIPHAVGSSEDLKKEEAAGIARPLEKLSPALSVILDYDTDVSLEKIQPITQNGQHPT
observationType: EC50

Item under review: CC1CCCN1C(=O)c1nc(C(=O)NCC(C)(C)O)sc1-c1ccc(C(O)(C(F)(F)F)C(F)(F)F)c(Cl)c1Cl (stereo not shown) [JNJ-61803534] . Reported EC50? > 12.5 µM

###

molecular target: CCKA (Homo sapiens, UniProt P32238); assay: GPCR panel, cAMP or calcium FLIPR assays; assay type: cell-based; conditions: antagonist
Sequence (P32238 whole entry): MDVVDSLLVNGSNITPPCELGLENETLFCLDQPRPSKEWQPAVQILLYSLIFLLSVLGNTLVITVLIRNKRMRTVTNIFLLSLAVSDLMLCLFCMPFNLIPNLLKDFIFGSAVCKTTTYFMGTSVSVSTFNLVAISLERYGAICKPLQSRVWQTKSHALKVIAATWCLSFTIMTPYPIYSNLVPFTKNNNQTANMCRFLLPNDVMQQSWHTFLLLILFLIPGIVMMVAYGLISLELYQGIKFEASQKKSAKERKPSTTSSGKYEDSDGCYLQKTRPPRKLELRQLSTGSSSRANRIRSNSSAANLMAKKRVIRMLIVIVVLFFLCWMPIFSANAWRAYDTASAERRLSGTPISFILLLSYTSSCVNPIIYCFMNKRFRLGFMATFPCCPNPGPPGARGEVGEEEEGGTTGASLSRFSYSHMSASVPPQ
observationType: IC50

Item under review: CC1CCCN1C(=O)c1nc(C(=O)NCC(C)(C)O)sc1-c1ccc(C(O)(C(F)(F)F)C(F)(F)F)c(Cl)c1Cl (stereo not shown) . Reported IC50? > 10 µM

###

Assay: mouse PK/PD model, plasma exposure
Assay type: in vivo
Settings: female, C57B6, mouse, plasma (5-fold diluted, extrapolated); 100 mg/kg oral, 18 h; calculated for 5-fold dilution; read-out: concentration in 5-fold diluted plasma
Text: Compound concentrations are also listed as undiluted (measured) and diluted (extrapolated) in Supplementary Table S2.
observationType: concentration at 18 h
The reply should read as a number followed by its unit.

Item under review: CC1CCCN1C(=O)c1nc(C(=O)NCC(C)(C)O)sc1-c1ccc(C(O)(C(F)(F)F)C(F)(F)F)c(Cl)c1Cl (stereo not shown) . Reported concentration at 18 h? 240 nM
